Reference source for all entries: ChEMBL document CHEMBL1150051

Recorded measurements of IC50, one per entry
- Test system: dengue virus type 4
- experimental_details: Antiviral activity against Dengue virus type 4 infected in african green monkey Vero cells after 6 days by plaque reduction assay
- Assay type: functional, organism-based
- conditions: Dengue virus, Vero, 144 h; read-out: IC50
Give the number; µg/mL is assumed, so skip it.

Some entries whose results are on file:
[[record]]
molecule = "O=c1[nH]c2c(c3cc4c(c(O)c13)OCO4)C[C@H](O)[C@@H](O)[C@H]2O [ISONARCICLASINE]"
observed_value = 0.27

[[record]]
molecule = "O=C1N[C@H]2[C@H](O)[C@H](O)[C@@H](O)C[C@H]2c2cc3c(c(O)c21)OCO3"
observed_value = 2.5

[[record]]
molecule = "O=C1N[C@@H]2C(=C[C@H](O)[C@@H](O)[C@H]2O)c2cc3c(c(O)c21)OCO3 [NARCICLASINE]"
observed_value = 0.015

[[record]]
molecule = "O=C1N[C@H]2[C@H](O)[C@H](O)[C@@H](O)[C@H](O)[C@@H]2c2cc3c(cc21)OCO3"
observed_value = 0.67


The value of IC50 measured for the molecule O[C@H]1[C@H]2c3cc4c(cc3CN3CCC(=C[C@@H]1O)[C@H]23)OCO4 [LYCORINE] turned out to be 0.24

====

- experimental_details: Therapeutic index, ratio of TC50 for african green monkey Vero cells to IC50 for Dengue type 4 virus
- Type: cell-based
- conditions: read-out: TI
selectivity ratio values, listed per item
API doc: respond with a numeric literal and nothing else, no unit.

GET /value?item= O=C1N[C@H]2[C@H](O)[C@H](O)[C@@H](O)[C@H](O)[C@@H]2c2cc3c(cc21)OCO3 &field=selectivity ratio returns 3.7

====

- experimental_details: Therapeutic index, ratio of TC50 for african green monkey Vero cells to IC50 for Dengue type 4 virus
- Type: cell-based
- conditions: read-out: TI
readout_label: selectivity ratio

The cases that follow already have their selectivity ratio on record.
[[record]]
smiles_code = "O=C1N[C@H]2[C@H](O)[C@H](O)[C@@H](O)[C@H](O)[C@@H]2c2cc3c(c(O)c21)OCO3"
readout_label = "selectivity ratio"
observed_value = 8

[[record]]
smiles_code = "O=C1N[C@H]2[C@H](O)[C@H](O)[C@@H](O)C[C@@H]2c2cc3c(cc21)OCO3"
readout_label = "selectivity ratio"
observed_value = 5

[[record]]
smiles_code = "O=C1N[C@H]2[C@H](O)[C@H](O)[C@@H](O)C[C@@H]2c2cc3c(c(O)c21)OCO3"
readout_label = "selectivity ratio"
observed_value = 4.2

[[record]]
smiles_code = "O=c1[nH]c2c(c3cc4c(cc13)OCO4)C[C@H](O)[C@@H](O)[C@H]2O"
readout_label = "selectivity ratio"
observed_value = 5.9

[[record]]
smiles_code = "O=C1N[C@H]2[C@H](O)[C@H](O)[C@@H](O)C[C@H]2c2cc3c(c(O)c21)OCO3"
readout_label = "selectivity ratio"
observed_value = "> 2"


# ---- query molecule ----
// selectivity ratio lookup, molecule = O[C@H]1[C@H]2c3cc4c(cc3CN3CCC(=C[C@@H]1O)[C@H]23)OCO4 , result: 10.4
